Tested on: TK-10 renal
Assay: NCI-60 one-dose screen, 48 h
Details: 10 µM unless noted
Compounds without any hit were thinned out: in the full panel of roughly 83,000, 20% have a hit. Calls of active or inactive are those of the source. The calls were made as follows: active = growth percent below 10; inactive = the rest.
Give your call using only these classes: active, inactive

Ask: // return assay outcome for CCOC(=O)c1c(-c2ccccc2)n2c(=O)cc(C)c3c(O)c(O)cc1c32
Reply: inactive

Ask: // return assay outcome for N#Cc1c(Nc2ccc(F)cc2)n[nH]c1-c1cccs1
Reply: inactive

Ask: // return assay outcome for Fc1ccc2c(c1)c(-c1nc(-c3c[nH]c4ncccc34)cs1)cn2CCCN1CCOCC1
Reply: inactive

Ask: // return assay outcome for COc1cc(/C=C2\CN(S(=O)(=O)c3ccc(C)cc3)C/C(=C\c3cc(CN4CCCCC4)c(O)c(OC)c3)C2=O)cc(CN2CCCCC2)c1O
Reply: active

Ask: // return assay outcome for COc1cc(C(=O)C(=O)c2cc(OC)c(O)c(OC)c2)cc(OC)c1O
Reply: inactive

Ask: // return assay outcome for Cc1cc2nc3c4ccccc4n(CCN(C)C)c3nc2cc1C
Reply: inactive

Ask: // return assay outcome for COc1ccc(-c2cc(C(=O)N3N=C(c4ccc(N)cc4)CC3c3ccccc3)c3ccccc3n2)cc1 (configuration not stated)
Reply: inactive

Ask: // return assay outcome for N#C/C(=C\c1ccc(Br)cc1)c1cc2ccccc2[nH]1
Reply: inactive

Ask: // return assay outcome for CCOC(=O)CSc1nc2sc3c(c2c(=O)n1-c1ccc([N+](=O)[O-])cc1)CCCCC3
Reply: inactive

Ask: // return assay outcome for CCC/C(=N\NC(N)=O)C(OC)OC
Reply: inactive

Ask: // return assay outcome for Cc1c(N2CN3C[C@H](C)N4CN(c5c(C)n(C)n(-c6ccccc6)c5=O)CN5C[C@@H](C)N(C2)C3C54)c(=O)n(-c2ccccc2)n1C (some centres not stated)
Reply: inactive

Ask: // return assay outcome for CCOC(=O)c1c(NC(=O)c2ccc(C(C)(C)C)cc2)sc2cc(O)ccc12
Reply: inactive

Ask: // return assay outcome for CC(C)(C)c1cc(C=Nc2cccc(C(F)(F)F)c2)c(O)c(C(C)(C)C)c1
Reply: inactive

Ask: // return assay outcome for O=C1/C=C/[C@@H](O)[C@@H]2C[C@@H](O)C[C@H]2/C=C/CCC[C@H](CCOCc2ccccc2)O1
Reply: active

Ask: // return assay outcome for CCN1C(=O)N(CC)C2C1NN=C1SCC(=O)N12 (configuration not stated)
Reply: inactive

Ask: // return assay outcome for COc1ccc2c(c1)c(-c1ccc(-c3cn(C)c4ccc(OC)cc34)[nH]1)cn2C
Reply: inactive

Ask: // return assay outcome for COc1ccc(C2=Nc3c/c(=C\c4c(O)[nH]c5cc(Cl)ccc45)ccc3=N2)cc1
Reply: inactive

Ask: // return assay outcome for N=c1sc(Cc2cc(Cl)ccc2Cl)cn1CC(=O)c1ccccc1
Reply: inactive

Ask: // return assay outcome for C/C(C=O)=C\c1ccc2c(c1)OCO2
Reply: inactive

Ask: // return assay outcome for CCOC(=O)n1cc(-c2nonc2-c2cn(C)c3ccccc23)c2ccccc21
Reply: inactive

Ask: // return assay outcome for N#Cc1c(NC(=O)c2cccs2)[n+]([O-])c2ccc(Cl)cc2[n+]1[O-]
Reply: inactive

Ask: // return assay outcome for Cc1ccc(-c2csc(NC(=O)N3CCN(c4cc5c(cc4F)c(=O)c(C(=O)O)cn5C4CC4)CC3)n2)cc1
Reply: inactive

Ask: // return assay outcome for Cc1cc2nc(-c3c(-c4ccc(F)cc4)nc4sccn34)[nH]c2cc1C
Reply: inactive

Ask: // return assay outcome for Fc1ccc(COc2ccc(Nc3ncnc4sc5c(c34)CCCC5)cc2)cc1
Reply: inactive

Ask: // return assay outcome for CS(=O)(=O)Cc1cnc(C2OCCO2)s1
Reply: inactive

Ask: // return assay outcome for COc1ccc(/C(C)=C(\c2ccc(Cl)cc2)c2ccc(OCCN3CCCC3)cc2)cc1
Reply: inactive

Ask: // return assay outcome for CC(C)c1ccc(-n2c(=S)[nH]c3sc4c(c3c2=O)CCC(=O)C4)cc1
Reply: inactive

* * *

System: SK-MEL-5 melanoma
Assay: NCI-60 one-dose screen, 48 h (100 = growth as untreated, 0 = no growth, -100 = all killed)
Conditions: 10 µM unless noted
The panel holds about 83,000 compounds, 20% with a hit somewhere; the sample as a whole holds those more often. Activity calls are given as the source filed them. The calls were made as follows: active = growth percent below 10; inactive = the rest.
Assignment: determine reported growth for the given compounds.

Ask: Could you please provide reported growth for O=C1CCCc2nc3sc4c(=O)n(-c5ccccc5Cl)nnc4c3cc21 ? Thanks!
Reply: 87.9% (inactive)

Ask: Could you please provide reported growth for CCCCNC1=C(OCC)C(=O)c2ccccc2C1=O ? Thanks!
Reply: 91.9% (inactive)

Ask: Could you please provide reported growth for COc1ccc(C2CC(c3ccc4c(c3)OCO4)=Nc3c(N)ncnc3N2)cc1 (stereo not given) ? Thanks!
Reply: 87.8% (inactive)

Ask: Could you please provide reported growth for Cn1cc(/C=C2/C(=O)Nc3ccccc32)c2ccccc21 ? Thanks!
Reply: 79.2% (inactive)

Ask: Could you please provide reported growth for CCOC(=O)/C=C/c1c(C)[nH]c(=O)[nH]c1=O ? Thanks!
Reply: 90.7% (inactive)

* * *

Test system: NCI-H522 lung
Test: NCI-60 one-dose screen, 48 h (100 = growth as untreated, 0 = no growth, -100 = all killed)
Details: 10 µM unless noted
The panel holds about 83,000 compounds, 20% with a hit somewhere; the sample as a whole holds those more often.
Decision: growth >= 40% yields Criterion met, all other cases yield Criterion not met.

Ask: Does the compound Oc1c(CN2CCCC2)cc(COCc2ccccc2)c2cccnc12 have recorded growth that is 40% or more?
Reply: Criterion not met

Ask: Does the compound COc1cc2c3c(n(CCCCNCCCn4c5c(c6cc(OC)c(OC)cc6c4=O)C(=O)c4cc6c(cc4-5)OCO6)c(=O)c2cc1OC)-c1cc2c(cc1C3=O)OCO2 have recorded growth that is 40% or more?
Reply: Criterion met

Ask: Does the compound Cc1cc(F)ccc1S(=O)(=O)Nc1cc(-c2c(O)ccc3ccccc23)c(O)c2ccccc12 have recorded growth that is 40% or more?
Reply: Criterion not met

Ask: Does the compound O=C1CCC(C(=O)NN(c2ccccc2)c2ccccc2)N1 (configuration not stated) have recorded growth that is 40% or more?
Reply: Criterion met

Ask: Does the compound Cc1cc(N2CCCCC2)nc(N2CCN(CC(=O)Nc3ccc4c(ccn4Cc4ccccc4)c3)CC2)n1 have recorded growth that is 40% or more?
Reply: Criterion met

Ask: Does the compound CCc1ccc(CCC(=O)Nc2ncc(Cc3ccc(Cl)cc3)s2)o1 have recorded growth that is 40% or more?
Reply: Criterion not met

Ask: Does the compound CCCCCCCC/C=C\CCCCCCCCOc1ccccc1CC(=O)NCC[N+]1(C)CCCCC1 have recorded growth that is 40% or more?
Reply: Criterion not met

Ask: Does the compound COc1ccc(NC(=O)c2sc3nc(C)c(C(O)c4ccccc4)cc3c2N)cc1 (configuration not stated) have recorded growth that is 40% or more?
Reply: Criterion not met

Ask: Does the compound C#CCOc1cccc(-c2ncc3cc(NC(=O)CCl)ccc3n2)c1 have recorded growth that is 40% or more?
Reply: Criterion not met

Ask: Does the compound Cc1c(Cl)cccc1C(=O)Nc1nc2c(s1)CN(C(=O)Nc1cccc(C(F)(F)F)c1)CC2 have recorded growth that is 40% or more?
Reply: Criterion not met

Ask: Does the compound CN1CCN(CCOc2ccc(-c3cnc4c(-c5ccc(C(F)(F)F)cc5)cnn4c3)cc2)CC1 have recorded growth that is 40% or more?
Reply: Criterion met

Ask: Does the compound CCCCC(=O)Nc1ncc(Cc2ccccc2Cl)s1 have recorded growth that is 40% or more?
Reply: Criterion not met

Ask: Does the compound C[C@@H]1O[C@@H](O[C@@H]2C[C@H](c3ccc4c(c3O)C(=O)C3=C(C4=O)[C@@]4(O)C(=O)C[C@](C)(O)C[C@@]4(O)C=C3)O[C@H](C)[C@H]2O)C[C@H](O)[C@@H]1O have recorded growth that is 40% or more?
Reply: Criterion met

Ask: Does the compound Fc1ccc(CNc2c3ccccc3nc3ccccc23)cc1 have recorded growth that is 40% or more?
Reply: Criterion met

Ask: Does the compound C=C1C(=O)O[C@H]2[C@H]1CC/C(CNC(=O)c1cc3ccccc3[nH]1)=C\CC[C@@]1(C)O[C@@H]21 have recorded growth that is 40% or more?
Reply: Criterion not met

Ask: Does the compound Cc1ccc(-c2csc(NC(=O)N3CCN(c4cc5c(cc4F)c(=O)c(C(=O)O)cn5C4CC4)CC3)n2)cc1 have recorded growth that is 40% or more?
Reply: Criterion not met

Ask: Does the compound COc1cc(C2C3=C(COC3=O)N(CCO)c3cc4c(cc32)OCCO4)cc(OC)c1OC (configuration not stated) have recorded growth that is 40% or more?
Reply: Criterion not met

Ask: Does the compound O=C1/C(=C/c2ccc(C(F)(F)F)cc2)COc2ccc(O)cc21 have recorded growth that is 40% or more?
Reply: Criterion not met

Ask: Does the compound Cc1ccc(C)c2c1C(O)(C#Cc1ccccc1)c1ccccc1C2(O)C#Cc1ccccc1 (configuration not stated) have recorded growth that is 40% or more?
Reply: Criterion met

Ask: Does the compound Cn1c(=O)c2c(c3ccccc31)OC(N)=C(C#N)C21C(=O)c2ccccc2C1=O have recorded growth that is 40% or more?
Reply: Criterion met

Ask: Does the compound O=C1C(Cl)=C(NCCN2CCOCC2)C(=O)c2ncccc21 have recorded growth that is 40% or more?
Reply: Criterion not met

Ask: Does the compound N#Cc1nc2c(S(=O)(=O)c3ccccc3)c(N)n(Cc3cccnc3)c2nc1C#N have recorded growth that is 40% or more?
Reply: Criterion met

Ask: Does the compound Oc1c(Cl)cc(Cl)c2ccc(Cn3cc(-c4cccc(C(F)(F)F)c4)nn3)nc12 have recorded growth that is 40% or more?
Reply: Criterion not met

Ask: Does the compound CCc1cccc(Sc2cc(C(=O)N3Cc4ccc(OCCN(C)C)cc4C3)ccc2O)c1 have recorded growth that is 40% or more?
Reply: Criterion met

Ask: Does the compound CCOC(=O)NN1CC(O)=C(c2nc(-c3ccc(Br)cc3)cs2)C1=N have recorded growth that is 40% or more?
Reply: Criterion met

Ask: Does the compound CCOC(=O)C/C(=N\Nc1cc(=O)[nH]c2ccc(Cl)cc12)C(=O)OCC have recorded growth that is 40% or more?
Reply: Criterion met

Ask: Does the compound O=C(c1ccc(F)c(Cl)c1)N1c2ccccc2Sc2ccccc21 have recorded growth that is 40% or more?
Reply: Criterion met

Ask: Does the compound Cn1c(/C=C/[N+](=O)[O-])cc2ccccc21 have recorded growth that is 40% or more?
Reply: Criterion met

Ask: Does the compound CNCc1cccc2c1OCCOCCN(C)C(=O)CN(C)S(=O)(=O)c1ccc(cc1)-c1cnc(N)c(n1)C(=O)N2 have recorded growth that is 40% or more?
Reply: Criterion not met

Ask: Does the compound CC(C)c1ccc(NC(=O)Nc2ccc(NC(=O)c3ccccc3N)cc2)cc1 have recorded growth that is 40% or more?
Reply: Criterion not met

Ask: Does the compound Fc1ccc(COc2ccc(Nc3ncnc4sc5c(c34)CCCC5)cc2)cc1 have recorded growth that is 40% or more?
Reply: Criterion met

Ask: Does the compound Cc1ccc2nc(Cl)c(Cn3nnnc3SCc3ccccc3)cc2c1 have recorded growth that is 40% or more?
Reply: Criterion met

Ask: Does the compound NC(=O)c1c(NC(=O)c2ccc(Cl)cc2)sc2c1CCC(=O)C2 have recorded growth that is 40% or more?
Reply: Criterion not met

Ask: Does the compound CCOC(=O)C(=Cc1cccc(C#N)c1)C(=O)OCC have recorded growth that is 40% or more?
Reply: Criterion not met

Ask: Does the compound O=c1ccc2nc(C(F)(F)F)nn(-c3ccccc3)c-2c1 have recorded growth that is 40% or more?
Reply: Criterion not met

Ask: Does the compound C=C1C(=O)O[C@H]2[C@H]1CC/C(COC(=O)/C=C\C(=O)NCc1ccc(Cn3c(=O)sn(-c4ccccc4)c3=O)cc1)=C\CC[C@@]1(C)O[C@@H]21 have recorded growth that is 40% or more?
Reply: Criterion not met

Where do the numbers come from? From PubChem BioAssay (NCI).
